- assay_system: KRas^G12C (Homo sapiens, UniProt P01116, G12C)
- Sequence (P01116 1-169 isoform P01116-2 G12C): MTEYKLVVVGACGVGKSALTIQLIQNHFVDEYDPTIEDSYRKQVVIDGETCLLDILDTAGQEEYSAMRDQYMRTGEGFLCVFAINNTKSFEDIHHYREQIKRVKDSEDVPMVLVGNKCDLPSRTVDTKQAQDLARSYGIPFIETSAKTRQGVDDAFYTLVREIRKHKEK
- method: biochemical
pIC50: −log10 of the molar value.
Given measured pIC50, output yes (1) if it is greater than or equal to 6 and no (0) if not.

Data request: Answer whether pIC50 of CCc1c(F)ccc2cc(O)cc(N3CCc4c(nc(OC[C@@]56CCCN5C[C@H](F)C6)nc4N4CCC(c5[nH]ncc5N)C4)C3)c12 (stereo partly shown) is greater than or equal to 6.
Data returned: yes (1)

Data request: Is it the case that CCc1cccc2cccc(N3CCc4c(nc(OCC56CCCN5CCC6)nc4N4CC(C)CC(C(N)=O)C4)C3)c12 (stereo not shown) has pIC50 reaching or exceeding 6?
Data returned: yes (1)

Data request: Item CCc1c(F)ccc2cc(O)cc(N3CCc4c(nc(OC[C@@]56CCCN5C[C@H](F)C6)nc4NCc4c[nH]c5ncccc45)C3)c12 with pIC50 of 6 or above?
Data returned: yes (1)

Data request: Quick check, pIC50 >= 6? Cc1cccc2cccc(N3CCc4c(nc(OCC56CCCN5CCC6)nc4N4CC5C(=O)NC(=O)C5C4)C3)c12 (stereo not shown)
Data returned: yes (1)

Data request: Determine whether this compound has pIC50 no lower than 6: CCc1cccc2cccc(N3CCc4c(nc(OCC56CCCN5CCC6)nc4NCCNS(N)(=O)=O)C3)c12
Data returned: no (0)

Data request: Does CCc1c(F)ccc2cc(O)cc(N3CCc4c(nc(OC[C@@]56CCCN5C[C@H](F)C6)nc4N4CCC[C@@](C)(O)C4)C3)c12 have a reported pIC50 of at least 6?
Data returned: yes (1)

Data request: Answer whether pIC50 of CCc1cccc2cccc(N3CCc4c(nc(OCC56CCCN5CCC6)nc4N4CCCC(c5nnc(CO)n5C)C4)C3)c12 (stereo not shown) is greater than or equal to 6.
Data returned: no (0)

Data request: Could you verify whether the entry CCc1cccc2cccc(N3CCc4c(nc(OCC56CCCN5CCC6)nc4N4CCC(O)CC(C)C4)C3)c12 (stereo not shown) shows pIC50 of no less than 6?
Data returned: yes (1)

Data request: Could you please find out whether CCc1cccc2cccc(N3CCc4c(nc(OCC56CCCN5CCC6)nc4N4CCCCCC4)C3)c12 has pIC50 that meets 6 or exceeds it?
Data returned: yes (1)

Data request: For this compound, is measured pIC50 6 or higher? CCc1cccc2cccc(N3CCc4c(nc(OCC56CCCN5CCC6)nc4N4CCCC(c5nc(C)c(C)[nH]5)C4)C3)c12 (stereo not shown)
Data returned: yes (1)

Data request: Threshold query (pIC50 >= 6) on CCc1cccc2cccc(N3CCc4c(nc(OCC56CCCN5CCC6)nc4N4CCCC(n5ccc(C)n5)C4)C3)c12 (stereo not shown)
Data returned: yes (1)

Data request: Does CCc1cccc2cccc(N3CCc4c(nc(OCC56CCCN5CCC6)nc4NC4CC(=O)N(c5cnn(C)c5)C4)C3)c12 (stereo not shown) have a reported pIC50 of at least 6?
Data returned: no (0)

Data request: // inclusive: pIC50 at least 6? input: CCc1cccc2cccc(N3CCc4c(nc(OCC56CCCN5CCC6)nc4N4Cc5ccnn5CC(O)C4)C3)c12 (stereo not shown)
Data returned: yes (1)

Data request: I'd appreciate it if you could say whether CCc1cccc2cccc(N3CCc4c(nc(OCC56CCCN5CCC6)nc4N4CCCC(O)(C(F)(F)F)C4)C3)c12 (stereo not shown) has pIC50 at least equal to 6.
Data returned: yes (1)

Data request: Check the entry CCc1cccc2cccc(N3CCc4c(nc(OCC56CCCN5CCC6)nc4N4CCCC(c5n[nH]cc5NC(C)=O)C4)C3)c12 (stereo not shown) : does pIC50 equal or exceed 6?
Data returned: no (0)

Data request: Item CCc1cccc2cccc(N3CCc4c(nc(OCC56CCCN5CCC6)nc4N4CCCC(c5cn(C)nn5)C4)C3)c12 (stereo not shown) with pIC50 of 6 or above?
Data returned: yes (1)

Data request: hey, is pIC50 for this one >= 6? CCc1cccc2cccc(N3CCc4c(nc(OCC56CCCN5CCC6)nc4N4CC(O)C(O)C(O)C4)C3)c12 (stereo not shown)
Data returned: yes (1)

Data request: Check this compound for pIC50 at or above 6: CCc1cccc2cccc(N3CCc4c(nc(OCC56CCCN5CCC6)nc4N4CCC(c5[nH]ncc5N)C4)C3)c12 (stereo not shown)
Data returned: yes (1)

Data request: API: above_or_equal(metric=pIC50, cutoff=6) for item CCc1cccc2cccc(N3CCc4c(nc(OCC56CCCN5CCC6)nc4N4CCOCC(C)(O)C4)C3)c12 (stereo not shown)
Data returned: yes (1)

Data request: Decide: pIC50 of CCc1cccc2cccc(N3CCc4c(nc(OCC56CCCN5CCC6)nc4NC4CCc5ncsc5C4)C3)c12 (stereo not shown) >= 6?
Data returned: no (0)

Data request: Say whether CCc1cccc2cccc(N3CCc4c(nc(OCC56CCCN5CCC6)nc4NC4CN(C(N)=O)C4)C3)c12 shows pIC50 of 6 or more.
Data returned: no (0)

Data request: Does CCc1cccc2cccc(N3CCc4c(nc(OCC56CCCN5CCC6)nc4N4CCC(O)C(CO)CC4)C3)c12 (stereo not shown) have a reported pIC50 of at least 6?
Data returned: yes (1)

====

- assay_system: KRas^G13D (Homo sapiens, UniProt P01116, G13D)
- Sequence (P01116 1-169 isoform P01116-2 G13D): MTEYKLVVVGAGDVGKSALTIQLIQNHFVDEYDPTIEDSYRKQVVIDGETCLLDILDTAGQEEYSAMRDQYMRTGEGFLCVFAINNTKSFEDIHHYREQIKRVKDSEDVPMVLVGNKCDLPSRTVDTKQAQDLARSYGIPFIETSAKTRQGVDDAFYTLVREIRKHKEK
- method: biochemical
endpoint_label: IC50 (nM)
Please state the figure in nM; there is no need to write the unit.

Data request: Reported IC50 for CCc1cccc2cccc(N3CCc4c(nc(OCC56CCCN5CCC6)nc4NC4CCNC(=O)C4)C3)c12 (stereo not shown) : what is it?
Data returned: 6440

Data request: Which IC50 value belongs to CCc1cccc2cccc(N3CCc4c(nc(OCC56CCCN5CCC6)nc4N4CCCC(c5n[nH]c(C6CC6)n5)C4)C3)c12 (stereo not shown) ?
Data returned: 1290

Data request: GET /values?readout=IC50&item= CCc1cccc2cccc(N3CCc4c(nc(OCC56CCCN5CCC6)nc4N4CCCCC(C)C4)C3)c12 (stereo not shown)
Data returned: 735

Data request: If you can, please state the reported IC50 value of CCc1cccc2cccc(N3CCc4c(nc(OCC56CCCN5CCC6)nc4N4CCCC(c5nc(C)c(C(=O)NC6CCC6)o5)C4)C3)c12 (stereo not shown) .
Data returned: 1760

Data request: Field request: IC50 | item: CCc1cccc2cccc(N3CCc4c(nc(OCC56CCCN5CCC6)nc4N4CCCC(N5CCCC5=O)C4)C3)c12 (stereo not shown)
Data returned: 1350

Data request: Report IC50 for CCc1cccc2cccc(N3CCc4c(nc(OCC56CCCN5CCC6)nc4N4CCCn5nc(CO)cc5C4)C3)c12 please.
Data returned: 628

Data request: For the compound shown here, CCc1cccc2cccc(N3CCc4c(nc(OCC56CCCN5CCC6)nc4N4CCCC(N5CCCS5(=O)=O)C4)C3)c12 (stereo not shown) , give the reported IC50.
Data returned: 186

Data request: Reported IC50 for CCc1cccc2cccc(N3CCc4c(nc(OCC56CCCN5CCC6)nc4N4CCCC(c5c[nH]cn5)C4)C3)c12 (stereo not shown) : what is it?
Data returned: 1670

Data request: What value of measured IC50 is listed for CCc1cccc2cccc(N3CCc4c(nc(OCC56CCCN5CCC6)nc4N4CCOC(CC(N)=O)C4)C3)c12 (stereo not shown) ?
Data returned: 691

Data request: // IC50 lookup, key: CCc1cccc2cccc(N3CCc4c(nc(OCC56CCCN5CCC6)nc4N4CCCn5nc(C)cc5C4)C3)c12
Data returned: 5720

Data request: Record request: IC50 value, item CCc1cccc2cccc(N3CCc4c(nc(OCC56CCCN5CCC6)nc4N4CC5CC(O)CC4C5)C3)c12 (stereo not shown)
Data returned: 583

Data request: I am curious: what IC50 value has been reported for CCc1cccc2cccc(N3CCc4c(nc(OCC56CCCN5CCC6)nc4N4CCCCCCC4)C3)c12 ?
Data returned: 1080

Data request: Could you tell me which IC50 is on file for CCc1c(F)ccc2cc(O)cc(N3CCc4c(nc(OC[C@@]56CCCN5C[C@H](F)C6)nc4N4CCCC(c5ncn[nH]5)C4)C3)c12 (stereo partly shown) ?
Data returned: 11

Data request: Please look up its IC50: CCc1cccc2cccc(N3CCc4c(nc(OCC56CCCN5CCC6)nc4N4CCOCC(C)(O)C4)C3)c12 (stereo not shown)
Data returned: 101

Data request: Suppose we examine the compound CCc1cccc2cccc(N3CCc4c(nc(OCC56CCCN5CCC6)nc4NCCNS(N)(=O)=O)C3)c12 ; what IC50 value has been reported?
Data returned: 10000

Data request: Would you kindly share the measured IC50 for CCc1cccc2cccc(N3CCc4c(nc(OCC56CCCN5CCC6)nc4NCc4cccnc4-n4cncn4)C3)c12 ?
Data returned: 13100

Data request: So what's the measured IC50 for this one? CCc1cccc2cccc(N3CCc4c(nc(OCC56CCCN5CCC6)nc4Nc4cnn(CC(N)=O)c4)C3)c12
Data returned: 5440

Data request: Look at this compound and give its reported IC50. CCc1cccc2cccc(N3CCc4c(nc(OCC56CCCN5CCC6)nc4NCCS(=O)(=O)N=S(C)(C)=O)C3)c12
Data returned: 6710

Data request: Which IC50 is listed for CCc1cccc2cccc(N3CCc4c(nc(OCC56CCCN5CCC6)nc4N4CCCC(c5n[nH]c(C)n5)C4)C3)c12 (stereo not shown) ?
Data returned: 1100

Data request: What does the data say about its IC50? Entry: CCc1cccc2cccc(N3CCc4c(nc(OCC56CCCN5CCC6)nc4N4CCC(O)C(CO)CC4)C3)c12 (stereo not shown)
Data returned: 40

Data request: Form field: reported IC50 of CCc1cccc2cccc(N3CCc4c(nc(OCC56CCCN5CCC6)nc4N4CCCC(n5cccn5)C4)C3)c12 (stereo not shown)
Data returned: 552

Data request: # query: IC50 of entry CCc1cccc2cccc(N3CCc4c(nc(OCC56CCCN5CCC6)nc4N(C)Cc4c[nH]nn4)C3)c12
Data returned: 1830

Data request: Reported IC50 for CCc1cccc2cccc(N3CCc4c(nc(OCC56CCCN5CCC6)nc4NCc4c5c(n[nH]c4=O)CCCC5)C3)c12 : what is it?
Data returned: 4860

Data request: Record request: IC50 value, item CCc1cccc2cccc(N3CCc4c(nc(OCC56CCCN5CCC6)nc4N4CCCC(c5ncn[nH]5)C4)C3)c12 (stereo not shown)
Data returned: 1180

Data request: So what's the measured IC50 for this one? CCc1cccc2cccc(N3CCc4c(nc(OCC56CCCN5CCC6)nc4NC4CC(=O)N(c5cnn(C)c5)C4)C3)c12 (stereo not shown)
Data returned: 5680

Data request: Which IC50 is reported for this compound? CCc1cccc2cccc(N3CCc4c(nc(OCC56CCCN5CCC6)nc4N4CCCC(NC(=O)N(C)C)C4)C3)c12 (stereo not shown)
Data returned: 919

Data request: Give the measured IC50 of CCc1cccc2cccc(N3CCc4c(nc(OCC56CCCN5CCC6)nc4NCc4nc5ncccc5o4)C3)c12 .
Data returned: 15500

Data request: Request the reported IC50 associated with CCc1cccc2cccc(N3CCc4c(nc(OCC56CCCN5CCC6)nc4N4CC(CO)OC5(CCC5)C4)C3)c12 (stereo not shown)
Data returned: 3220
